target_entity: T1, soluble heterodimeric hCD3ε/δ.mFc protein (human)
T1 construct: also called soluble human CD3; soluble heterodimeric CD3 protein
T1 chain 1: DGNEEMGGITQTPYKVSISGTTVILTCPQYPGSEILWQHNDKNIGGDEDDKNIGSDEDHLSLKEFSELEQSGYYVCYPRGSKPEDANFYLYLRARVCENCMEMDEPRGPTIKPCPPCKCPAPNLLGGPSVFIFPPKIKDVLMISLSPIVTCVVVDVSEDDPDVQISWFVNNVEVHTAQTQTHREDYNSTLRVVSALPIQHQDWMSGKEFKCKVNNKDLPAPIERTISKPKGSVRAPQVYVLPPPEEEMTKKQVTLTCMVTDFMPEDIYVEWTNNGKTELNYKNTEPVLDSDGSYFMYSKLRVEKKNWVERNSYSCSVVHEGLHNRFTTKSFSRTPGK
T1 chain 2: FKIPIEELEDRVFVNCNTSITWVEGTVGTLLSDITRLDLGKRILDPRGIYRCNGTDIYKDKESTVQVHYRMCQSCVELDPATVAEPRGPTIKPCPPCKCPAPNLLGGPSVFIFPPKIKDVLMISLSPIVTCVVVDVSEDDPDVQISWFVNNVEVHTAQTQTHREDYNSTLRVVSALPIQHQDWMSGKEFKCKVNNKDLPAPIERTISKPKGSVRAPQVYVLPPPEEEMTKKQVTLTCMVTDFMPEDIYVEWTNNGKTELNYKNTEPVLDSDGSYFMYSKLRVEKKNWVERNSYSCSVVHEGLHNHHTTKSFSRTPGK
assay_remarks: SPR MASS-1, 37 C, antigen-capture (hCD3ε/δ.mFc captured), antibody injected
Please provide measured T½ for the entries that follow.
Field: value (include unit after the number)

INSERT INTO measurements (binder, value_reported) VALUES
  ('BSPSMA/CD3-1200 (bispecific antibody, IgG4, V domains shown, modified (chimeric) IgG4 Fc domain; also called PSMA-VH-11810 x CD3-VH-G12) VH 1: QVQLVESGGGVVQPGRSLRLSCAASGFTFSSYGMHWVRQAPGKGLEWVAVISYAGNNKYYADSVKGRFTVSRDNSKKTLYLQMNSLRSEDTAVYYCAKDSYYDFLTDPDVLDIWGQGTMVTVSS VH 2: EVQLVESGGGLVQPGRSLRLSCAASGFTFDDYSMHWVRQAPGKGLEWVSGISWNSGSIGYADSVKGRFTISRDNAKNSLYLQMNSLRAEDTALYYCAKDGSGYGKFYHYGLDVWGQGTTVTVSS VL: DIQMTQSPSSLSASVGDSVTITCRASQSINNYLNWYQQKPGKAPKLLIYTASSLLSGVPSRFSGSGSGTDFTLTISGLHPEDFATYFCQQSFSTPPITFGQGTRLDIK', '4.7 min');

Data request: What value of measured T½ is listed for BSPSMA/CD3-005 (bispecific antibody, IgG4, V domains shown, modified (chimeric) IgG4 Fc domain; also called PSMA-VH-11810 x CD3-VH-G20) VH 1: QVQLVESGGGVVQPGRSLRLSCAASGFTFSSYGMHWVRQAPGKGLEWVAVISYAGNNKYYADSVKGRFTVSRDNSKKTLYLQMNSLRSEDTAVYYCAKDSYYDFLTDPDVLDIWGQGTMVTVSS VH 2: EVQLVESGGGLVQPGRSLRLSCAASGFTFDDYSMHWVRQAPGKGLEWVSGISWNSGSIGYADSVKGRFTISRDNAKNSLYLQMNSLRAEDTALYYCAKYGSGYGKFYYYGMDVWGQGTTVTVSS VL: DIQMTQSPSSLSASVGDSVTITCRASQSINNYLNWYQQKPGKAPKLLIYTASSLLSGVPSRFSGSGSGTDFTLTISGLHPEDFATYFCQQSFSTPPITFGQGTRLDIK ?
Data returned: 2 min

Reference source: patent US20190127480A1
